FYI, the data here is from PubChem BioAssay (NCI).

Tested on: OVCAR-8 ovarian
Protocol: NCI-60 one-dose screen, 48 h (100 = growth as untreated, 0 = no growth, -100 = all killed)
Condition Notes: 10 µM unless noted
Compounds without any hit were thinned out: in the full panel of roughly 83,000, 20% have a hit.
param class (str): category from growth; see ranges L: < 30%; M: ≥ 30% and < 90%; H: ≥ 90%

Prompt line: Please indicate the class for COc1ccc(C(=O)c2cc(C)c(OC)c(C)c2)c(OC)c1O based on its growth.
Response line: L

Prompt line: Form field 'band' for COc1ccc(-c2ncc(-c3ccccc3)[nH]2)cc1OC
Response line: H

Prompt line: // bin(item) where item = COc1ccc(CC(C)=C(c2ccc(OCCN(C)C)cc2)c2ccc(OCCN(C)C)cc2)cc1
Response line: M

Prompt line: Categorize the following entry: COc1ccccc1N1CCN(C(=O)c2ccc3nc(NC(=O)c4ccc(NCCc5ccccc5)c([N+](=O)[O-])c4)sc3c2)CC1
Response line: M

Prompt line: Into which bin does this compound go? c1ccc(-c2nn(-c3ccccc3)[n+](-c3ccccc3-c3ccccc3)n2)cc1
Response line: L

Prompt line: Please report the category associated with C=CCn1c(SCC(=O)Nc2ccc(C(=O)/C=C/c3cc(OC)c(OC)c(OC)c3)cc2)nnc1-c1cc(OC)c(OC)c(OC)c1 , nothing else.
Response line: L
